A collection of compounds and their measured viability, T/C
Test system: K86415-001-R-J1-PDC complex spheroids, viability
MEASUREMENT_PROTOCOL: Anticancer human tumor K86415-001-R-J1-PDC patient-derived lung adenocarcinoma cell line growth inhibition [RAS]
RUN_PARAMETERS: second compound 0.03 µM; first compound 0.000949 µM; stronger effect = lower value
Reply numerically in %, unit not repeated.

COMPOUND: CC1(C)CCC(Nc2ncc(C(F)(F)F)c(-c3c[nH]c4c(P(C)(C)=O)c(C#N)ccc34)n2)CN1 (centres undefined) + CCn1c(-c2cccnc2C(C)OC)c2c3cc(ccc31)N1CCOC(CC(NC(=O)C(C(C)C)N(C)C(=O)C3(F)CCN(C(=O)C#CC(C)(C)N(C)C)CC3)C(=O)N3CCCC(N3)C(=O)OCC(C)(C)C2)C1
viability, T/C (%): 13.3
//
COMPOUND: CCc1c2c(nc3ccc(O)cc13)-c1cc3c(c(=O)n1C2)COC(=O)[C@]3(O)CC + CCn1c(-c2cc(N3CCN(C)CC3)cnc2C(C)OC)c2c3cc(ccc31)-c1csc(n1)CC(NC(=O)C1CC1C)C(=O)N1CCCC(N1)C(=O)OCC(C)(C)C2
viability, T/C (%): 5.24

## Input Fill in the blank: the reported viability, T/C of CCc1c2c(nc3ccc(O)cc13)-c1cc3c(c(=O)n1C2)COC(=O)[C@]3(O)CC + CCn1c(-c2cccnc2C(C)OC)c2c3cc(ccc31)N1CCOC(CC(NC(=O)C(C(C)C)N(C)C(=O)C3(F)CCN(C(=O)C#CC(C)(C)N(C)C)CC3)C(=O)N3CCCC(N3)C(=O)OCC(C)(C)C2)C1 is ____.
## Output 10.7

## Input Entry under review: CC1(C)CCC(Nc2ncc(C(F)(F)F)c(-c3c[nH]c4c(P(C)(C)=O)c(C#N)ccc34)n2)CN1 (centres undefined) + CCn1c(-c2cc(N3CCN(C)CC3)cnc2C(C)OC)c2c3cc(ccc31)-c1csc(n1)CC(NC(=O)C1CC1C)C(=O)N1CCCC(N1)C(=O)OCC(C)(C)C2 . Reported viability, T/C?
## Output 6.32

* * *

Tested on: K86415-001-R-J1-PDC complex spheroids, viability
MEASUREMENT_PROTOCOL: Anticancer human tumor K86415-001-R-J1-PDC cell line growth inhibition [RAS];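 further: spheroids exposed to agents for seven days before readout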
RUN_PARAMETERS: curve of first compound; second compound 0.00316 µM
RECORDED_ENDPOINT: IC50

## Input Bench note: what IC50 did CC(Nc1ccc2c(c1)OCCn1cc(N3C(=O)OCC3C(F)F)nc1-2)C(N)=O (stereo not given) + C=CC(=O)N1CCN(c2nc(OCC3CCCN3C)nc3c(F)c(-c4nc(N)cc(C)c4C(F)(F)F)c(Cl)cc23)C(C)C1 show?
## Output < 31.6 nM

## Input Form field: reported IC50 of CCc1c2c(nc3ccc(O)cc13)-c1cc3c(c(=O)n1C2)COC(=O)[C@]3(O)CC + C=CC(=O)N1CCN(c2nc(OCC3CCCN3C)nc3c(F)c(-c4nc(N)cc(C)c4C(F)(F)F)c(Cl)cc23)C(C)C1
## Output < 0.949 nM

* * *

Test system: K86415-001-R-J1-PDC complex spheroids, viability
MEASUREMENT_PROTOCOL: Anticancer human tumor K86415-001-R-J1-PDC cell line growth inhibition [RAS];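 further: spheroids exposed to agents for seven days before readout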
RUN_PARAMETERS: second compound 0.1 µM; first compound 0.03 µM; stronger effect = lower value
RECORDED_ENDPOINT: viability, T/C (%)
Please respond with the number in % and leave the unit unwritten.

Recorded viability, T/C, per entry:
COMPOUND: CCc1c2c(nc3ccc(O)cc13)-c1cc3c(c(=O)n1C2)COC(=O)[C@]3(O)CC + C#Cc1c(F)ccc2cc(O)cc(-c3ncc4c(N5CC6CCC(C5)N6)nc(OCC56CCCN5CC(F)C6)nc4c3F)c12
UNIT_ABBREV: %
viability, T/C: 14
--
COMPOUND: CCc1c2c(nc3ccc(O)cc13)-c1cc3c(c(=O)n1C2)COC(=O)[C@]3(O)CC + C=CC(=O)N1CCN(c2nc(OCC3CCCN3C)nc3c(F)c(-c4nc(N)cc(C)c4C(F)(F)F)c(Cl)cc23)C(C)C1
UNIT_ABBREV: %
viability, T/C: 7.98
--
COMPOUND: CC1(C)CCC(Nc2ncc(C(F)(F)F)c(-c3c[nH]c4c(P(C)(C)=O)c(C#N)ccc34)n2)CN1 (centres undefined) + C=CC(=O)N1CCN(c2nc(OCC3CCCN3C)nc3c(F)c(-c4nc(N)cc(C)c4C(F)(F)F)c(Cl)cc23)C(C)C1
UNIT_ABBREV: %
viability, T/C: 13.1

Continue with the compound presented below.
## Input Recorded viability, T/C for CC1(C)CCC(Nc2ncc(C(F)(F)F)c(-c3c[nH]c4c(P(C)(C)=O)c(C#N)ccc34)n2)CN1 (centres undefined) + C#Cc1c(F)ccc2cc(O)cc(-c3ncc4c(N5CC6CCC(C5)N6)nc(OCC56CCCN5CC(F)C6)nc4c3F)c12 , please?
## Output 62

* * *

System: K86415-001-R-J1-PDC complex spheroids, viability
MEASUREMENT_PROTOCOL: Anticancer human tumor K86415-001-R-J1-PDC cell line growth inhibition [RAS];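 further: spheroids exposed to agents for seven days before readout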
RUN_PARAMETERS: second compound 0.1 µM; first compound 0.0316 µM; stronger effect = lower value
RECORDED_ENDPOINT: viability, T/C (%)
Give a bare numeral; the unit % is implied.

Known viability, T/C results, listed for orientation:
COMPOUND: CC(C)NCC(C(=O)N1CCN(c2ncnc3c2C(C)CC3O)CC1)c1ccc(Cl)cc1 (configuration not stated) + C#Cc1c(F)ccc2cc(O)cc(-c3ncc4c(N5CC6CCC(C5)N6)nc(OCC56CCCN5CC(F)C6)nc4c3F)c12
viability, T/C [%]: 113
--
COMPOUND: CC1(O)CCCC1n1c(=O)c(C(F)F)cc2cnc(NC3CCN(S(C)(=O)=O)CC3)nc21 (configuration not stated) + C=CC(=O)N1CCN(c2nc(OCC3CCCN3C)nc3c(F)c(-c4nc(N)cc(C)c4C(F)(F)F)c(Cl)cc23)C(C)C1
viability, T/C [%]: 12.1
--
COMPOUND: CC(C)n1nc(-c2ccc3oc(N)nc3c2)c2c(N)ncnc21 + C=CC(=O)N1CCN(c2nc(OCC3CCCN3C)nc3c(F)c(-c4nc(N)cc(C)c4C(F)(F)F)c(Cl)cc23)C(C)C1
viability, T/C [%]: 5.11
--
COMPOUND: C=CC(=O)Nc1cc(Nc2nccc(-c3cn(C)c4ccccc34)n2)c(OC)cc1N(C)CCN(C)C + C#Cc1c(F)ccc2cc(O)cc(-c3ncc4c(N5CC6CCC(C5)N6)nc(OCC56CCCN5CC(F)C6)nc4c3F)c12
viability, T/C [%]: 88.1
--
COMPOUND: Nc1ccn(C2OC(CO)C(O)C2(F)F)c(=O)n1 (configuration not stated) + C#Cc1c(F)ccc2cc(O)cc(-c3ncc4c(N5CC6CCC(C5)N6)nc(OCC56CCCN5CC(F)C6)nc4c3F)c12
viability, T/C [%]: 70.8

## Input Provide the documented viability, T/C with K86415-001-R-J1-PDC complex spheroids, viability as the system for NC1c2ccccc2OC12CCN(c1cnc3c(N4CCCc5ncccc54)n[nH]c3n1)CC2 (configuration not stated) + C#Cc1c(F)ccc2cc(O)cc(-c3ncc4c(N5CC6CCC(C5)N6)nc(OCC56CCCN5CC(F)C6)nc4c3F)c12
## Output 36.4

## Input Tell me reported viability, T/C for C[C@@H](NC(=O)c1ncnc(N)c1Cl)c1ncc(C(=O)Nc2cc(C(F)(F)F)c(Cl)cn2)s1 + C#Cc1c(F)ccc2cc(O)cc(-c3ncc4c(N5CC6CCC(C5)N6)nc(OCC56CCCN5CC(F)C6)nc4c3F)c12 , tested with K86415-001-R-J1-PDC complex spheroids, viability.
## Output 113

* * *

System: K86415-001-R-J1-PDC complex spheroids, viability
MEASUREMENT_PROTOCOL: Anticancer human tumor K86415-001-R-J1-PDC cell line growth inhibition [RAS];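 further: spheroids exposed to agents for seven days before readout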
RUN_PARAMETERS: curve of first compound; second compound 3.16 µM
pIC50: −log10 of the molar value.
As shown below, each of these compounds has a reported pIC50 value.

COMPOUND: CC(C)NCC(C(=O)N1CCN(c2ncnc3c2C(C)CC3O)CC1)c1ccc(Cl)cc1 (stereo not given) + C#Cc1c(F)ccc2cc(O)cc(-c3ncc4c(N5CC6CCC(C5)N6)nc(OCC56CCCN5CC(F)C6)nc4c3F)c12
TEST_SYSTEM: K86415-001-R-J1-PDC complex spheroids, viability
pIC50: > 7.50

## Input So what's the measured pIC50 for this one? C[C@@H](NC(=O)c1ncnc(N)c1Cl)c1ncc(C(=O)Nc2cc(C(F)(F)F)c(Cl)cn2)s1 + C#Cc1c(F)ccc2cc(O)cc(-c3ncc4c(N5CC6CCC(C5)N6)nc(OCC56CCCN5CC(F)C6)nc4c3F)c12
## Output 6.74

## Input Any idea what pIC50 was measured for CC(C)n1nc(-c2ccc3oc(N)nc3c2)c2c(N)ncnc21 + C#Cc1c(F)ccc2cc(O)cc(-c3ncc4c(N5CC6CCC(C5)N6)nc(OCC56CCCN5CC(F)C6)nc4c3F)c12 ?
## Output > 9.50

## Input For CCc1c2c(nc3ccc(O)cc13)-c1cc3c(c(=O)n1C2)COC(=O)[C@]3(O)CC + C#Cc1c(F)ccc2cc(O)cc(-c3ncc4c(N5CC6CCC(C5)N6)nc(OCC56CCCN5CC(F)C6)nc4c3F)c12 , what is its reported pIC50?
## Output > 9.02

## Input # lookup: pIC50 of CC1(O)CCCC1n1c(=O)c(C(F)F)cc2cnc(NC3CCN(S(C)(=O)=O)CC3)nc21 (stereo not given) + C#Cc1c(F)ccc2cc(O)cc(-c3ncc4c(N5CC6CCC(C5)N6)nc(OCC56CCCN5CC(F)C6)nc4c3F)c12
## Output > 7.50

Cited source: PubChem BioAssay AID2060893
